System: IGROV1 ovarian
Experiment: NCI-60 one-dose screen, 48 h
Settings: 10 µM unless noted
About 83,000 compounds went through this panel and 20% of them were active in at least one assay; those are over-represented in the sample as a whole. Active and inactive are the calls of the source. Rule for the calls: active = growth percent below 10; inactive = the rest.
Field 'call' accepts active, inactive

// below: answered molecules
MOLECULE: COc1ccncc1C#Cc1cncc(C(=O)Nc2ccc(CN3CCN(C)CC3)c(C(F)(F)F)c2)c1
CLASS: inactive
--
MOLECULE: O=C1Nc2c(ccc(Cl)c2Cl)/C1=C/c1ccc(O)cc1
CLASS: inactive

Exercise: Per the records of this test, what outcome belongs to COc1ccc(-c2nc(SCCC(C)C)nc(N/N=C(/C)c3ccc(C)cc3)c2C#N)cc1 ?
Key: inactive

Exercise: Per the records of this test, what outcome belongs to FCc1nc2nc(Cl)c(Cl)nc2[nH]1 ?
Key: inactive

Exercise: Per the records of this test, what outcome belongs to COc1ccc(Cn2nc(-c3ccccc3)c3c2CCc2cnoc2-3)cc1 ?
Key: inactive

Exercise: Per the records of this test, what outcome belongs to N#CSCC1CC(O)(c2ccccc2)C(c2ccccc2)C(c2ccc(F)cc2)O1 (configuration not stated) ?
Key: inactive

Exercise: Per the records of this test, what outcome belongs to COc1ccccc1Nc1cc(O)c2c(=O)cc(-c3ccccc3)oc2c1 ?
Key: inactive

Recorded values, source PubChem BioAssay (NCI).
